Assay: Acute oral toxicity in rats
Format: in vivo
Conditions: rat, in vivo, po, 2000 mg/kg, 2 g/kg oral, 10 M, 5 Days; read-out: Percentage Mortality
measured_metric: mortality at 120 h
The number alone won't do; follow it with the unit.

Consider the molecule CC(=O)Nc1ccc(O)cc1 [NAPA, N-acetyl-para-aminophenol] and give its measured mortality at 120 h.
10%

----------
Test: Acute oral toxicity in rats
Format: in vivo
Conditions: rat, in vivo, po, 1000 mg/kg, 1 g/kg oral, M & F, 48 Hours; read-out: Percentage Mortality
Method: (F)--Investigation of Acute Oral Toxicity in Rats The investigation was carried out upon groups of 10 male and 10 female albino rats (Charles River CD-1 COBS) of 80-100 g body weight. […] Before the experiment they were fasted overnight, with water ad libitum. […] The rats were then kept under observation during seven days, while their behaviour patterns were observed and the mortality recorded
measured_metric: mortality at 48 h (%)
Quick reminder: number only, in %, skip the unit.

Consider the compound CC(=O)Nc1ccc(O)cc1 and give its measured mortality at 48 h.
5

----------
Assay: in vivo
Conditions: mouse, po, 1073 mg/kg
measured_metric: concentration at 4 h

Consider the compound CC(=O)Nc1ccc(O)cc1 and give its measured concentration at 4 h.
32000 ng/mL

----------
Test: Acute oral toxicity in rats
Type: in vivo
Conditions: rat, in vivo, po, 1000 mg/kg, 1 g/kg oral, 10 F, 6 Days; read-out: Percentage Mortality
measured_metric: mortality at 144 h (%)
Quick reminder: number only, in %, skip the unit.

Consider the compound CC(=O)Nc1ccc(O)cc1 and give its measured mortality at 144 h.
0

----------
Assay: Acute oral toxicity in rats
Assay type: in vivo
Conditions: rat, in vivo, po, 2000 mg/kg, 2 g/kg oral, 10 M, 7 Days; read-out: Percentage Mortality
measured_metric: mortality at 168 h (%)
Quick reminder: number only, in %, skip the unit.

Consider the compound CC(=O)Nc1ccc(O)cc1 and give its measured mortality at 168 h.
10

----------
Assay: Acute oral toxicity in rats
Type: in vivo
Conditions: rat, in vivo, po, 2000 mg/kg, 2 g/kg oral, 10 M, 3 Days; read-out: Percentage Mortality
measured_metric: mortality at 72 h

Consider the molecule CC(=O)Nc1ccc(O)cc1 [NAPA, N-acetyl-para-aminophenol] and give its measured mortality at 72 h.
10%

----------
Assay: Acute oral toxicity in rats
Assay type: in vivo
Conditions: rat, in vivo, po, 8000 mg/kg, 8 g/kg oral, 10 M, 3 Days; read-out: Percentage Mortality
measured_metric: mortality at 72 h (%)
Quick reminder: number only, in %, skip the unit.

Consider the molecule CC(=O)Nc1ccc(O)cc1 [NAPA, N-acetyl-para-aminophenol] and give its measured mortality at 72 h.
100

----------
Assay: Acute oral toxicity in rats
Format: in vivo
Conditions: rat, in vivo, po, 1000 mg/kg, 1 g/kg oral, M & F, 6 Days; read-out: Percentage Mortality
measured_metric: mortality at 144 h (%)
Quick reminder: number only, in %, skip the unit.

Consider the compound CC(=O)Nc1ccc(O)cc1 and give its measured mortality at 144 h.
5

----------
Test: Acute oral toxicity in rats
Format: in vivo
Settings: rat, in vivo, po, 1000 mg/kg, 1 g/kg oral, 10 M, 7 Days; read-out: Percentage Mortality
measured_metric: mortality at 168 h (%)
Quick reminder: number only, in %, skip the unit.

Consider the molecule CC(=O)Nc1ccc(O)cc1 and give its measured mortality at 168 h.
10

----------
Experiment: Acute oral toxicity in rats
Assay type: in vivo
Conditions: rat, in vivo, po, 1000 mg/kg, Percentage Mortality
measured_metric: mortality at 144 h (%)
Quick reminder: number only, in %, skip the unit.

Consider the compound CSCCC(NC(C)=O)C(=O)Oc1ccc(NC(C)=O)cc1 (racemic) and give its measured mortality at 144 h.
0

----------
Assay: Acute oral toxicity in rats
Format: in vivo
Details: rat, in vivo, po, 4000 mg/kg, 4 g/kg oral, 10 M, 48 Hours; read-out: Percentage Mortality
measured_metric: mortality at 48 h (%)
Quick reminder: number only, in %, skip the unit.

Consider the molecule CC(=O)Nc1ccc(O)cc1 and give its measured mortality at 48 h.
90

----------
Experiment: Acute oral toxicity in rats
Type: in vivo
Conditions: rat, in vivo, po, 2000 mg/kg, Percentage Mortality
measured_metric: mortality at 48 h (%)
Quick reminder: number only, in %, skip the unit.

Consider the compound CSCCC(NC(C)=O)C(=O)Oc1ccc(NC(C)=O)cc1 (racemic) [Compound A] and give its measured mortality at 48 h.
0

----------
Please provide measured LD50 at 24 h for the entries that follow.
Experiment: in vivo
Settings: mouse, in vivo, po

Consider the compound CSCCC(NC(C)=O)C(=O)Oc1ccc(NC(C)=O)cc1 (racemic) and give its measured LD50 at 24 h.
≥ 4000 mg/kg

Consider the compound CC(=O)Nc1ccc(O)cc1 and give its measured LD50 at 24 h.
730 mg/kg

----------
Assay: Acute oral toxicity in rats
Format: in vivo
Details: rat, in vivo, po, 4000 mg/kg, 4 g/kg oral, M & F, 6 Days; read-out: Percentage Mortality
measured_metric: mortality at 144 h (%)
Quick reminder: number only, in %, skip the unit.

Consider the compound CC(=O)Nc1ccc(O)cc1 and give its measured mortality at 144 h.
80

----------
Assay: Acute oral toxicity in rats
Format: in vivo
Conditions: rat, in vivo, po, 8000 mg/kg, 8 g/kg oral, 10 M, 5 Days; read-out: Percentage Mortality
measured_metric: mortality at 120 h (%)
Quick reminder: number only, in %, skip the unit.

Consider the molecule CC(=O)Nc1ccc(O)cc1 and give its measured mortality at 120 h.
100

----------
Test: Acute oral toxicity in rats
Format: in vivo
Settings: rat, in vivo, po, 1000 mg/kg, Percentage Mortality
measured_metric: mortality at 168 h
The number alone won't do; follow it with the unit.

Consider the molecule CSCCC(NC(C)=O)C(=O)Oc1ccc(NC(C)=O)cc1 (racemic) and give its measured mortality at 168 h.
0%

----------
Assay: Acute oral toxicity in rats
Assay type: in vivo
Settings: rat, in vivo, po, 4000 mg/kg, Percentage Mortality
Description: (F)--Investigation of Acute Oral Toxicity in Rats The investigation was carried out upon groups of 10 male and 10 female albino rats (Charles River CD-1 COBS) of 80-100 g body weight. […] Before the experiment they were fasted overnight, with water ad libitum. […] The rats were then kept under observation during seven days, while their behaviour patterns were observed and the mortality recorded
measured_metric: mortality at 144 h (%)
Quick reminder: number only, in %, skip the unit.

Consider the compound CSCCC(NC(C)=O)C(=O)Oc1ccc(NC(C)=O)cc1 (racemic) [Compound A] and give its measured mortality at 144 h.
0

----------
Test: Acute oral toxicity in rats
Type: in vivo
Details: rat, in vivo, po, 4000 mg/kg, 4 g/kg oral, 10 M, 6 Days; read-out: Percentage Mortality
measured_metric: mortality at 144 h (%)
Quick reminder: number only, in %, skip the unit.

Consider the molecule CC(=O)Nc1ccc(O)cc1 [NAPA, N-acetyl-para-aminophenol] and give its measured mortality at 144 h.
90

----------
Experiment: Hydrolysis stability in simulated gastric fluid
Format: physicochemical
Conditions: pH 1.79; simulated gastric fluid, pH about 1.79, 37° C.
measured_metric: half-life (h)
Quick reminder: number only, in h, skip the unit.

Consider the compound CSCCC(NC(C)=O)C(=O)Oc1ccc(NC(C)=O)cc1 (racemic) and give its measured half-life.
40

----------
Experiment: Acute oral toxicity in rats
Format: in vivo
Conditions: rat, in vivo, po, 8000 mg/kg, 8 g/kg oral, 10 M, 24 Hours; read-out: Percentage Mortality
measured_metric: mortality at 24 h (%)
Quick reminder: number only, in %, skip the unit.

Consider the compound CC(=O)Nc1ccc(O)cc1 and give its measured mortality at 24 h.
90

----------
Experiment: Acute oral toxicity in rats
Type: in vivo
Details: rat, in vivo, po, 4000 mg/kg, Percentage Mortality
measured_metric: mortality at 48 h (%)
Quick reminder: number only, in %, skip the unit.

Consider the compound CSCCC(NC(C)=O)C(=O)Oc1ccc(NC(C)=O)cc1 (racemic) [Compound A] and give its measured mortality at 48 h.
0

----------
Assay: Acute oral toxicity in rats
Assay type: in vivo
Conditions: rat, in vivo, po, 4000 mg/kg, 4 g/kg oral, M & F, 48 Hours; read-out: Percentage Mortality
measured_metric: mortality at 48 h (%)
Quick reminder: number only, in %, skip the unit.

Consider the molecule CC(=O)Nc1ccc(O)cc1 and give its measured mortality at 48 h.
80

----------
Test: in vivo
Settings: mouse, po, 500 mg/kg, Serum "free NAPA"
measured_metric: concentration at 2 h (µg/mL)
Quick reminder: number only, in µg/mL, skip the unit.

Consider the molecule CC(=O)Nc1ccc(O)cc1 and give its measured concentration at 2 h.
97

----------
Assay: Acute oral toxicity in rats
Assay type: in vivo
Conditions: rat, in vivo, po, 2000 mg/kg, 2 g/kg oral, 10 F, 6 Days; read-out: Percentage Mortality
measured_metric: mortality at 144 h (%)
Quick reminder: number only, in %, skip the unit.

Consider the compound CC(=O)Nc1ccc(O)cc1 [NAPA, N-acetyl-para-aminophenol] and give its measured mortality at 144 h.
0
